molecular target: human Cot/Tpl2 kinase (Homo sapiens, UniProt P41279); construct: human Cot/Tpl2 kinase construct encoding residues 30-398; 6His (N); made in house; host or cells: Sf9 insect cells, baculovirus system (BD Biosciences); test: Tpl2/Cot kinase assay: GST-MEK1 phosphorylation detected by ELISA (DELFIA Eu); format: biochemical; settings: Table 2; Tpl2/Cot kinase, GST-MEK1 substrate, 50 uM ATP
Sequence (P41279 30-398): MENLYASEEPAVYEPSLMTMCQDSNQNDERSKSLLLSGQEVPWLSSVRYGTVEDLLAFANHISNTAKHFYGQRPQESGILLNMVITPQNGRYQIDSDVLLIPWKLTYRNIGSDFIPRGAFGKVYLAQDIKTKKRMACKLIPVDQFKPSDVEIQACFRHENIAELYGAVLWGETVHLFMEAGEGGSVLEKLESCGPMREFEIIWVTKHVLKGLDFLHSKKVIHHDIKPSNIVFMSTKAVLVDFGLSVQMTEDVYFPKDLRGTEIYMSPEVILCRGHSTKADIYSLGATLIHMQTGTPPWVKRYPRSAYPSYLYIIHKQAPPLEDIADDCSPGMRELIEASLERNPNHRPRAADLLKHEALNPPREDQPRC
Label fulfilled when IC50 is strictly below 40 nM; at or above that, label not fulfilled.

compound	measured_target	cat
CC(C)(C)OC(=O)N1CCC(CCn2cc(CN(Cc3cn(CCC4CCN(C(=O)OC(C)(C)C)CC4)nn3)c3cc(Br)c4ncc(C#N)c(Nc5ccc(F)c(Cl)c5)c4c3)nn2)CC1	human Cot/Tpl2 kinase (Homo sapiens, UniProt P41279)	not fulfilled
N#Cc1cnc2ccc(NCc3ccc4c(c3)OCO4)cc2c1Nc1cccc(Cl)c1	human Cot/Tpl2 kinase (Homo sapiens, UniProt P41279)	not fulfilled
Cn1nnc(CCNc2cc(Cl)c3ncc(C#N)c(Nc4ccc(F)c(Cl)c4)c3c2)n1	human Cot/Tpl2 kinase (Homo sapiens, UniProt P41279)	not fulfilled
N#Cc1cnc2ccc(N)cc2c1NC1CCN(Cc2ccccc2)CC1	human Cot/Tpl2 kinase (Homo sapiens, UniProt P41279)	not fulfilled
CCN1CC(CCn2cc(CNc3cc(Cl)c4ncc(C#N)c(Nc5ccc(F)c(Cl)c5)c4c3)nn2)N(c2ccccc2)C1=O (stereo not shown)	human Cot/Tpl2 kinase (Homo sapiens, UniProt P41279)	fulfilled
CN(C)CCCOc1ccc(CNc2ccc3ncc(C#N)c(Nc4cccc(Cl)c4)c3c2)cc1	human Cot/Tpl2 kinase (Homo sapiens, UniProt P41279)	not fulfilled

Please examine the following record next.
Please state whether IC50 is below 40 nM for `N#Cc1cnc2ccc(Br)cc2c1Nc1ccc(Oc2ccccc2)cc1`
not fulfilled

###

target: human Cot/Tpl2 kinase (Homo sapiens); construct: human Cot/Tpl2 kinase construct encoding residues 30-398; 6His (N); made in house; host or cells: Sf9 insect cells, baculovirus system (BD Biosciences); test: Tpl2/Cot kinase assay: GST-MEK1 phosphorylation detected by ELISA (DELFIA Eu); assay type: biochemical; settings: 0.4 nM Tpl2, 35 nM GST-MEK1, 50 uM ATP, 1 h at 30° C.
Below, each of the compounds is paired with its reported pIC50 value.
On this scale, pIC50 is minus log10 of a concentration expressed in M (mol/L).

Here's what some known entries look like.
mol	numeric_result
CN(C)C(=O)c1cc(NCc2cccnc2)cc2c(Nc3ccc(F)c(Cl)c3)c(C#N)cnc12	6.28
N#Cc1ccc(CNc2ccc3ncc(C#N)c(Nc4ccc(F)c(Cl)c4)c3c2)cc1	6.23
Cc1cccc(CNc2cc(Cl)c3ncc(C#N)c(Nc4ccc(F)c(Cl)c4)c3c2)n1	6.77
N#Cc1cnc2c(C(F)(F)F)cc(NCc3ccccn3)cc2c1Nc1ccc(F)c(Cl)c1	4.71
CCc1nc(CNc2cc(Cl)c3ncc(C#N)c(Nc4ccc(F)c(Cl)c4)c3c2)c(C)n1C(=O)OC(C)(C)C	5.01

Look up pIC50: `Cn1ccnc1CNc1cc(Br)c2ncc(C#N)c(Nc3ccc(F)c(Cl)c3)c2c1`
7.59

Look up pIC50: `N#Cc1cnc2c(Cl)cc(NCCn3ccnc3)cc2c1Nc1ccc(F)c(Cl)c1`
6.40

Look up pIC50: `CS(=O)(=O)c1cccc(CNc2ccc3ncc(C#N)c(NC4CCCCCC4)c3c2)c1`
5.60

Look up pIC50: `N#Cc1cnc2c(Cl)cc(NCc3cccc(N4CCOCC4)n3)cc2c1Nc1ccc(F)c(Cl)c1`
7.46

Look up pIC50: `CN(C)C=Nc1cc(Cl)c2ncc(C#N)c(Nc3ccc(F)c(Cl)c3)c2c1`
5.13

Look up pIC50: `N#Cc1cnc2c(Cl)cc(NCc3c(CCCO)ncn3COCc3ccccc3)cc2c1Nc1ccc(F)c(Cl)c1`
6.06

Look up pIC50: `CN(C)C(=O)c1cc(NCc2ccccn2)cc2c(Nc3ccc(F)c(Cl)c3)c(C#N)cnc12`
6.44

Look up pIC50: `N#Cc1cnc2c(F)cc(NCc3cccc[n+]3[O-])cc2c1Nc1ccc(F)c(Cl)c1`
7.89

Look up pIC50: `N#Cc1ccccc1CNc1ccc2ncc(C#N)c(Nc3ccc(F)c(Cl)c3)c2c1`
6.89

Look up pIC50: `CC(C)(C)OC(=O)COc1ccc(Br)cc1CNc1ccc2ncc(C#N)c(Nc3ccc(F)c(Cl)c3)c2c1`
4.57

###

Below, each of the molecules is paired with its reported IC50 value.
Target: human Cot/Tpl2 kinase (Homo sapiens)
Construct: human Cot/Tpl2 kinase construct encoding residues 30-398; 6His (N); made in house; host or cells: Sf9 insect cells, baculovirus system (BD Biosciences)
Experiment: Tpl2/Cot kinase assay: GST-MEK1 phosphorylation detected by ELISA (DELFIA Eu)
Assay type: biochemical
Details: Tpl2/Cot kinase, GST-MEK1 substrate, 50 uM ATP, 1 h at 30° C.; Table 2
Procedure: Sf9 cells expressing the kinase were lysed in 50 mM NaPhosphate pH=8; 300 mM NaCl; 5 mM imidazole; 0.1 mM EGTA; 25 mM beta-glycerophosphate; 1% TX-100, 1% glycerol; 6 mM beta-mercaptoethanol and protease inhibitors. […] Tpl2/Cot activity was directly assayed using GST-MEK1 as a substrate. GST-MEK1 phosphorylation on serine residues 217 and 221 was detected by ELISA. […] After a final wash, Eu detection solution was added to each well and the Eu signal was measured in a Wallac Victor^2 Multilabel Counter. […]
Please reply with the bare figure in nM and do not write the unit itself.

molecule	reported_endpoint	numeric_result
CCNC(=O)N1C2CCC1CC(n1cc(CNc3cc(Cl)c4ncc(C#N)c(Nc5ccc(F)c(Cl)c5)c4c3)nn1)C2 (stereo not drawn)	IC50	23
N#Cc1cnc2c(Cl)cc(NCc3cn(C4CCNCC4)nn3)cc2c1NC1CCC1	IC50	350
CCCN1C2CCC1CC(n1cc(CNc3cc(Cl)c4ncc(C#N)c(Nc5ccc(F)c(Cl)c5)c4c3)nn1)C2 (stereo not drawn)	IC50	8
CN(C)C(=O)N1CCN(CCn2cc(CNc3cc(Cl)c4ncc(C#N)c(Nc5ccc(F)c(Cl)c5)c4c3)nn2)CC1	IC50	31

Proceed to the following item.
Look up IC50: CN1CCCC1CCn1cc(CNc2cc(Cl)c3ncc(C#N)c(NC4CCCCCC4)c3c2)nn1 (stereo not drawn)
700

###

target: human Cot/Tpl2 kinase (Homo sapiens); construct: human Cot/Tpl2 kinase construct encoding residues 30-398; 6His (N); made in house; host or cells: Sf9 insect cells, baculovirus system (BD Biosciences); assay: Tpl2/Cot kinase assay: GST-MEK1 phosphorylation detected by ELISA (DELFIA Eu); format: biochemical; settings: 0.4 nM Tpl2, 35 nM GST-MEK1, 50 uM ATP, 1 h at 30° C.
Classify on IC50 using bucket 1 (below 300 nM), bucket 2 (300 nM to below 600 nM), bucket 3 (600 nM or more)

compound	cat
CCc1nc(CNc2cc(Cl)c3ncc(C#N)c(Nc4ccc(F)c(Cl)c4)c3c2)cn1CC(N)=O	bucket 2
N#Cc1cnc2c(Cl)cc(NCc3cn(CCN4CCOC4=O)nn3)cc2c1Nc1ccc(F)c(Cl)c1	bucket 1
Cc1c(CNc2ccc3ncc(C#N)c(Nc4ccc(F)c(Cl)c4)c3c2)ncn1CCN1CCOCC1	bucket 1
COCCOc1ccc(Br)cc1CNc1ccc2ncc(C#N)c(Nc3ccc(F)c(Cl)c3)c2c1	bucket 3

Could you place `N#Cc1cnc2ccc(NCc3ccoc3)cc2c1Nc1ccc(F)c(Cl)c1` in its proper category? Many thanks.
bucket 2

Could you place CN1CCCC(n2cc(CNc3cc(Cl)c4ncc(C#N)c(Nc5ccc(F)c(Cl)c5)c4c3)nn2)CC1 (centres unmarked) in its proper category? Many thanks.
bucket 1

Could you place `N#Cc1cnc2ccc(NCc3cccnc3)cc2c1Nc1ccc(F)c(Cl)c1` in its proper category? Many thanks.
bucket 2

Could you place `N#Cc1cnc2ccc(NCc3ccccc3)cc2c1Nc1ccc(N2CCOCC2)cc1` in its proper category? Many thanks.
bucket 3

Could you place `CCOC(OCC)c1[nH]nnc1CNc1cc(Br)c2ncc(C#N)c(Nc3ccc(F)c(Cl)c3)c2c1` in its proper category? Many thanks.
bucket 1

Could you place `COCCOc1ccc(C#N)cc1CNc1ccc2ncc(C#N)c(Nc3ccc(F)c(Cl)c3)c2c1` in its proper category? Many thanks.
bucket 3

Could you place `N#Cc1cnc2c(NC=O)cc(NCc3cccnc3)cc2c1Nc1cccc(Cl)c1` in its proper category? Many thanks.
bucket 3

Could you place `CSc1cc(NCc2cnc[nH]2)cc2c(Nc3ccc(F)c(Cl)c3)c(C#N)cnc12` in its proper category? Many thanks.
bucket 2

Could you place `CN(C)C(=O)c1cc(NCCN2CCOCC2)cc2c(Nc3cccc(Cl)c3)c(C#N)cnc12` in its proper category? Many thanks.
bucket 3

Could you place `COc1c(C)cnc(CNc2cc(Cl)c3ncc(C#N)c(Nc4ccc(F)c(Cl)c4)c3c2)c1C` in its proper category? Many thanks.
bucket 3
